Here, each record is paired with measured pull-down binding Z-score data.
test system: TO-3-N3 (biotin conjugate); experiment: pull-down binding Z-score (relative to library population); higher = stronger binding; settings: RNA library: Library-2
# output: bare number, no unit

Input: So what does the record say about pull-down binding Z-score for UAACACCAGGAACAAAUACUUCUAACCAGGUUGCUGUUCUUUAUCAGGGUGUUA [SHAPE_invivo_SARS-CoV-2_Motif_440] ?
Output: -0.383

----------
Here, each record is paired with measured pull-down binding Z-score data.
system: TO-3-N3-2 (biotin conjugate); test: pull-down binding Z-score (relative to library population); higher = stronger binding; settings: RNA library: Library-2
# output: bare number, no unit

Example entries begin here.
                                  seqstring  quantitativeresult
0               CUAUACAUUCUUUAAGAGUUUGUGUAG              -0.294
1  GCCUGUGUAAAUGGU [IAV_invivo_NA_6_Motif_8+IAV_invivo_NA_6_Motif_8]              -0.297

Switching to the query record.
Input: So what does the record say about pull-down binding Z-score for GGUUGGCCGCUGACCCCCGCGGGGCCCCCGGCGGCC [hsa-mir-3195] ?
Output: -0.293

----------
tested on: TO-3-N3-2 (biotin conjugate); assay: pull-down binding Z-score (relative to library population); higher = stronger binding; conditions: RNA library: Library-2
valueType: pull-down binding Z-score
# output: bare number, no unit

In [3]: df
Out[3]:
                                  seqstring  quantitativeresult
0  CUAUCAGGCCGGUAG [DMSMaPseq_invitro_SARS-CoV-2_Motif_406]              -0.579
1  AUCAAGAAAAGAUUUGGUGUUCUUGAU [hsa-mir-4782]              -0.112
2  GGAGGCCCCGCUCUGCUGCCGACCCUGUGGAGCGGAGGGUGAAGCCUCC [hsa-mir-3180-4]               0.118
3    GUCUCGGUCCUUUGGAACGUGGC [hsa-mir-4470]              -0.387
4  CAUGUCAUGUCUAAACAUACUGACUUUUCAAGUG [SHAPE_invitro_SARS-CoV-2_Motif_169]              -0.276
5  GUGCGGCACAGGCACUAGUACUGAUGUCGUAU [SHAPE_invitro_SARS-CoV-2_Motif_246]              0.0228
6    GGUUGUUUAAUUAGGAACCAACU [hsa-mir-190b]              0.0266
7          GACUUGAGAUUAUAGUC [hsa-mir-3685]               -0.13

Switching to the query record.
Input: So what does the record say about pull-down binding Z-score for GGACUUGCGGUUCA [hsa-mir-8057] ?
Output: -0.281

----------
tested on: TO-3-N3 (biotin conjugate); test: pull-down binding Z-score (relative to library population); higher = stronger binding; conditions: RNA library: Library-2
So basically: pull-down binding Z-score at -0.2 or higher? That is Fulfilled. Lower than -0.2? That is Not fulfilled.

Known results for sequences:
In [3]: df
Out[3]:
                                  seqstring  categorylabel
0                  GUUGCGUCACCAAAUGAAUGCAAC  Not fulfilled
1   UGGAAGGAAUGGGAUCUACUUCCA [hsa-mir-3612]      Fulfilled
2  AGGUUGGACAGCUGGUGCUGCAGCUU [SHAPE_invivo_SARS-CoV-2_Motif_420]      Fulfilled
3         UAAGUGUCCUAGCACUUA [hsa-mir-374b]      Fulfilled
4  UACAAACUUGUG [DMSMaPseq_invitro_SARS-CoV-2_Motif_398]  Not fulfilled

Input: Hi, just wondering whether UGUACAGGUGAGCGGAUGUUCUGCACA [hsa-mir-3120] shows pull-down binding Z-score of -0.2 or higher.
Output: Fulfilled

Input: Hi, just wondering whether CAGGUGUUCUUAAAAUCACCUG [hsa-mir-875] shows pull-down binding Z-score of -0.2 or higher.
Output: Not fulfilled

Input: Hi, just wondering whether CCUCCCUAGGGGAUCCCAGGUAGG [hsa-mir-4688] shows pull-down binding Z-score of -0.2 or higher.
Output: Fulfilled

----------
Here, each record is paired with measured pull-down binding Z-score data.
tested on: G-clamp-N3 (biotin conjugate); experiment: pull-down binding Z-score (relative to library population); higher = stronger binding; settings: RNA library: Library-1 (pre-miRNA loops + repeats)
# output: bare number, no unit

>>> df
                                  seqstring                     testtarget  quantitativeresult
0        CCCAUAAGGGUCGAAUGGG [hsa-mir-4713]  G-clamp-N3 (biotin conjugate)              -0.205
1  UGGGCUCCCCUAGACUAGGACUCCA [hsa-mir-1825]  G-clamp-N3 (biotin conjugate)               0.254
2       CAGUGGUGCCAUCUCCCCUG [hsa-mir-5008]  G-clamp-N3 (biotin conjugate)               -1.49

Input: So what does the record say about pull-down binding Z-score for UGAGGAGCUUAGCAAGUAGCUAAGGCCAGA [hsa-mir-4517] ?
Output: 0.384

Input: So what does the record say about pull-down binding Z-score for AUGUCUCAGGUCCCCAGCUGAGUCAA [hsa-mir-6513] ?
Output: -1.3

Input: So what does the record say about pull-down binding Z-score for GGUGCAGUCAGUCCUAGCUC [hsa-mir-3135b] ?
Output: -1.49

Input: So what does the record say about pull-down binding Z-score for GGAGCCCGAGCAGCCGCGGUGAA [hsa-mir-7706] ?
Output: -1.54

----------
Here, each record is paired with measured pull-down binding Z-score data.
test system: TO-3-N3-2 (biotin conjugate); test: pull-down binding Z-score (relative to library population); higher = stronger binding; conditions: RNA library: Library-2
# output: bare number, no unit

                                 seqstring                    testtarget                  valuetype  quantitativeresult
0        UGCAGAUUUGGAUGAUUUCUCCAAACAAUUGCA  TO-3-N3-2 (biotin conjugate)  pull-down binding Z-score              -0.117
1  CGUAUGUGUAUAUAAAUGUAUACG [hsa-mir-1277]  TO-3-N3-2 (biotin conjugate)  pull-down binding Z-score              -0.547

Input: So what does the record say about pull-down binding Z-score for AUGUCUGCUGGGGAACCGGGGCU [hsa-mir-4518] ?
Output: 0.297

----------
Here, each record is paired with measured pull-down binding Z-score data.
test system: TO-N3 (biotin conjugate); experiment: pull-down binding Z-score (relative to library population); higher = stronger binding; conditions: RNA library: Library-2
# output: bare number, no unit

Example entries begin here.
>>> df
                                  seqstring  quantitativeresult
0    GUGUGUUACCUAGAAAUAGCACU [hsa-mir-378a]              -0.282
1  UUUGUGGGGCGAGGAGGGACCUGUACUAGCCAUGGUUCUGAUCACAUAUG [hsa-mir-6834]                3.83

Input: So what does the record say about pull-down binding Z-score for UAAUAUGCACUAUAAAUAUAUUG [hsa-mir-450a-1] ?
Output: -1.16

Input: So what does the record say about pull-down binding Z-score for AGUUUCUGGAAUGUCAGAACUUCCAGAAACU [hsa-mir-3199-2] ?
Output: 0.392

Input: So what does the record say about pull-down binding Z-score for AUCACUGAAAUAUGUCUGAGCUUCUGUU [hsa-mir-4501] ?
Output: -0.658

Input: So what does the record say about pull-down binding Z-score for UGUGGUGGGUGGUGGCCUGCGGUGAGCAGGGCCCUCA [hsa-mir-1228] ?
Output: 2.36

Input: So what does the record say about pull-down binding Z-score for GGGCCAUGUCUGUGAGGGCCCA [hsa-mir-4294] ?
Output: 0.221

Input: So what does the record say about pull-down binding Z-score for AUGGUUCCUAUUCUGAUCAAUAAACAUGGUUUGAGCCUAGUUACAAUGAUCUAAAAUUCACGGUCCAA [hsa-mir-548o] ?
Output: -0.587

Input: So what does the record say about pull-down binding Z-score for CGGAGCAGUCACGUUGACGGAAUCCUCCG [hsa-mir-3183] ?
Output: 0.329

Input: So what does the record say about pull-down binding Z-score for UAUUCUCUAU [hsa-mir-2054] ?
Output: 0.367

Input: So what does the record say about pull-down binding Z-score for CACUACAAGAAGAAUGUAGUUGUG [hsa-mir-19a] ?
Output: -0.154

Input: So what does the record say about pull-down binding Z-score for AGGUAAAACCAACAGUGGUUGUUAAUGCAGCCAAUGUUUACCU ?
Output: -1.2
